System: Mus musculus
Assay: Increase of GST level in Swiss albino mouse liver assessed as CDNB-GSH conjugate per mg of protein at 3 mg/kg, po after 30 days (reference value: 95.66+/-4.0 nmol/min)
Type: functional
Consider the following molecules; for each one, report its Activity.
Numbers only, in nM.

Reference set, count: 3
- structure: "N#C[Se]CCCCCN1C(=O)c2cccc3c(N)ccc(c23)C1=O"
  reported.property: "Activity"
  assay.value: 116.19
- structure: "N#C[Se]CCCCCN1C(=O)c2cccc3cc([N+](=O)[O-])cc(c23)C1=O"
  reported.property: "Activity"
  assay.value: 97.29
- structure: "N#C[Se]CCCCCN1C(=O)c2cccc3c(Cl)ccc(c23)C1=O"
  reported.property: "Activity"
  assay.value: 106.58

In plain terms, `N#C[Se]CCCCCN1C(=O)c2cccc3cccc(c23)C1=O` has a documented Activity of 104.41

---

Please provide measured Activity for the entries that follow.
Test system: Mus musculus
Experiment: Toxicity in Swiss albino mouse assessed as hemoglobin level at 3 mg/kg, po after 30 days (reference value: 12.56+/-0.43 gm/dL)
Format: organism-based
Design: dose 3 mg/kg, route oral
Conditions: in vivo, 720 h
Quote the value and follow it with the unit of measurement.

Example entries begin here.
- structure: "N#C[Se]CCCCCN1C(=O)c2cccc3c(N)ccc(c23)C1=O"
  Activity: "13.24 g/dL"
- structure: "N#C[Se]CCCCCN1C(=O)c2cccc3c(Cl)ccc(c23)C1=O"
  Activity: "12.86 g/dL"
- structure: "N#C[Se]CCCCCN1C(=O)c2cccc3cc([N+](=O)[O-])cc(c23)C1=O"
  Activity: "12.76 g/dL"

The value of Activity measured for the compound `N#C[Se]CCCCCN1C(=O)c2cccc3cccc(c23)C1=O` turned out to be 13.08 g/dL

---

Answer each item with its documented Activity.
Test: Induction of chromosomal aberration in Swiss albino mouse bone marrow cell at 3 mg/kg, po after 30 days (reference value: 14.88+/-0.99 %)
Format: organism-based
Design: dose 3 mg/kg, route oral
Conditions: in vivo, 720 h
One number for each entry, in %.

Solved entries (count: 3):
- structure: "N#C[Se]CCCCCN1C(=O)c2cccc3c(N)ccc(c23)C1=O"
  value.units: "%"
  assay.value: 12.7
- structure: "N#C[Se]CCCCCN1C(=O)c2cccc3cccc(c23)C1=O"
  value.units: "%"
  assay.value: 13.39
- structure: "N#C[Se]CCCCCN1C(=O)c2cccc3c(Cl)ccc(c23)C1=O"
  value.units: "%"
  assay.value: 13.97

Noted for `N#C[Se]CCCCCN1C(=O)c2cccc3cc([N+](=O)[O-])cc(c23)C1=O` : its Activity reads 13.85

---

System: Mus musculus
Assay: Hepatotoxicity in Swiss albino mouse assessed as plasma AST level at 3 mg/kg, po after 30 days (reference value: 179.00+/-4.18 U/mL)
Assay type: toxicity, organism-based
Set-up: dose 3 mg/kg, route oral
Settings: in vivo, 720 h
Assignment: determine reported Activity for the given compounds.

Some compounds with known Activity results, for comparison:
- structure: "N#C[Se]CCCCCN1C(=O)c2cccc3c(N)ccc(c23)C1=O"
  tested.on: "Mus musculus"
  reported.property: "Activity"
  assay.value: "148 U/ml"
- structure: "N#C[Se]CCCCCN1C(=O)c2cccc3c(Cl)ccc(c23)C1=O"
  tested.on: "Mus musculus"
  reported.property: "Activity"
  assay.value: "142 U/ml"
- structure: "N#C[Se]CCCCCN1C(=O)c2cccc3cc([N+](=O)[O-])cc(c23)C1=O"
  tested.on: "Mus musculus"
  reported.property: "Activity"
  assay.value: "154 U/ml"

Then this compound:
For `N#C[Se]CCCCCN1C(=O)c2cccc3cccc(c23)C1=O` the compound record lists Activity as 160 U/ml

---

Exercise: state measured Activity for each of the compounds provided.
Test system: Mus musculus
Experiment: Hepatotoxicity in Swiss albino mouse assessed as plasma ALT level at 3 mg/kg, po after 30 days (reference value: 66.00+/-4.18 U/mL)
Format: toxicity, organism-based
Design: dose 3 mg/kg, route oral
Conditions: in vivo, 720 h
Give bare numbers, in U/ml.

Example entries and their recorded answers appear below.
- structure: "N#C[Se]CCCCCN1C(=O)c2cccc3c(Cl)ccc(c23)C1=O"
  reported.property: "Activity"
  assay.value: 64
- structure: "N#C[Se]CCCCCN1C(=O)c2cccc3c(N)ccc(c23)C1=O"
  reported.property: "Activity"
  assay.value: 59
- structure: "N#C[Se]CCCCCN1C(=O)c2cccc3cc([N+](=O)[O-])cc(c23)C1=O"
  reported.property: "Activity"
  assay.value: 62

Please fill in: Activity reported for `N#C[Se]CCCCCN1C(=O)c2cccc3cccc(c23)C1=O` = 61

---

Experiment: Toxicity in po dosed Swiss albino mouse
Assay type: organism-based
Conditions: in vivo
reported.property: LD50

A selection of reference data follows.
- compound: "N#C[Se]CCCCCN1C(=O)c2cccc3cc([N+](=O)[O-])cc(c23)C1=O"
  LD50: "> 1000 mg/kg"
- compound: "O=[Se]([O-])[O-].[Na+].[Na+] [SODIUM SELENITE]"
  LD50: "25 mg/kg"
- compound: "N#C[Se]CCCCCN1C(=O)c2cccc3c(Cl)ccc(c23)C1=O"
  LD50: "> 1000 mg/kg"
- compound: "N#C[Se]CCCCCN1C(=O)c2cccc3cccc(c23)C1=O"
  LD50: "> 1000 mg/kg"

Looking up `N#C[Se]CCCCCN1C(=O)c2cccc3c(N)ccc(c23)C1=O` , I found its LD50 recorded as > 1000 mg/kg

Hey, just so you know, these numbers are from ChEMBL document CHEMBL1629707.
